Give pKd for every item shown.
biological target: T1, LILRB2-ECD-HIS (SinoBiological Cat #: 14132-H02H) (human, UniProt Q8N423 22-460); assay: BLI (Gator), RB2-ECD-his
T1 construct: Bought protein; also called monomeric antigen LILRB2-ECD-HIS; not shown: His tag
T1 sequence (Q8N423 other isoform, or with tags, fused parts or gaps H02H H02H): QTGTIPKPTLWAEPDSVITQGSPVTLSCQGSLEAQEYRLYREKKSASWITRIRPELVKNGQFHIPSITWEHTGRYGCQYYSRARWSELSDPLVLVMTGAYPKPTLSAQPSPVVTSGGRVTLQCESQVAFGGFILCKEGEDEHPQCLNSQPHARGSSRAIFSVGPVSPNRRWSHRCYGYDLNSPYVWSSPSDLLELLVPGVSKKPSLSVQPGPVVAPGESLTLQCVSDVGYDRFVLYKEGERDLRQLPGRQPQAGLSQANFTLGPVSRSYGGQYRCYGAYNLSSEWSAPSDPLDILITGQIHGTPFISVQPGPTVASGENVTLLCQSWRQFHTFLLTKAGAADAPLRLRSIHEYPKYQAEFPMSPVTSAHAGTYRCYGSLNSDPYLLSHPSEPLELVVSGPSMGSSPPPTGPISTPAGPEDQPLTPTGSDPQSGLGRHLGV
pKd here is simply -log10 of the concentration when that concentration is written in mol/L.

pKd in this record for D2M002-126 (antibody, V domains shown, Humanized and optimized variant of D2M002-026) VH: QVQLVQSGAEVKKPGASVKVSCKASGYTFTSYWIEWVRQAPGQGLEWIGEILPGDESTNYNAKFKGRVTFTTDTSTSTAYMELRSLRSDDTAVYYCARSGAGGYDSGAFAYWGQGTLVTVSS VL: AIQLTQSPSSLSASVGDRVTITCRASESVDTYGNSFMHWYQQKPGKAPKLLVYRTSNLESGVPSRFSGSGSGTDFTLTISSLQPEDFATYYCQQSNEDPWTFGGGTKVEIK : 10.32

So, D2M002-002 (antibody, V domains shown, Hit from immunised mice; also called clone #2; anti-LILRB1/2 clone #2) VH: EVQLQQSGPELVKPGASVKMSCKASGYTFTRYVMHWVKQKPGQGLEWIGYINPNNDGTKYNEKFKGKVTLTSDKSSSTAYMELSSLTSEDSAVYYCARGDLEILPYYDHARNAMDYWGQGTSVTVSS VL: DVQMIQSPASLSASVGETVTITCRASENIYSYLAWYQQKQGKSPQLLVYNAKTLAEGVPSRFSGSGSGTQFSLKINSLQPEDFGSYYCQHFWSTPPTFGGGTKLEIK ? Its pKd was 9.33

Form field pKd, entry D2M002-103 (antibody, V domains shown, also called P212_F01) VH: QVQLVQSGAEVKKPGASVKVSCKASGYTFTRYVMHWVRQAPGQRLEWMGWINPNNEETKYSQKFKGRVTLTRDTSASTAYMELSSLRSEDTAVYYCARADLEILPYYDHARYAMDYWGQGTLVTVSS VL: DIQMTQSPSSVSASVGDRVTITCRASENIYSHLAWYQQKPGKAPKLLVYNAKSLQSGVPSRFSGSGSGTDFTLTISSLQPEDFATYYCQHFWSTPPTFGGGTKVEIK : 9.87

Just so you know, measured pKd for D2M002-026 (antibody, V domains shown, Hit; also called clone #26) VH: QVQLQQPGAELMKPGASVKISCKATGYTFSSYWIEWVKQRPGHGLEWIGEILPGDGSTNYNAKFKGQATFTADTSSNTAYMQFSSLTSEDSAVYYCARSGAGGYDSGAFAYWGQGTLVTVSS VL: DIVLTQSPASLAVSLGQRATISCRASESVDTYGNSFMHWYQQKPGQPPKLLVYRTSNLESGIPARFSGSGSGTDFTLTINPVEADDVATYYCQQSNEDPWTFGGGTKLEIK came out at 9.99
